Biological target: T1, human αvβ5 expressed on BaF3 cells (stably transfected with human αv and β5 subunits) (human, UniProt P06756 31-1048; P18084 24-799)
T1 construct: also called αvβ5-BaF3; BaF3-hu αvβ5
T1 sequence (P06756 31-1048 limits assumed, chain 1 of 2): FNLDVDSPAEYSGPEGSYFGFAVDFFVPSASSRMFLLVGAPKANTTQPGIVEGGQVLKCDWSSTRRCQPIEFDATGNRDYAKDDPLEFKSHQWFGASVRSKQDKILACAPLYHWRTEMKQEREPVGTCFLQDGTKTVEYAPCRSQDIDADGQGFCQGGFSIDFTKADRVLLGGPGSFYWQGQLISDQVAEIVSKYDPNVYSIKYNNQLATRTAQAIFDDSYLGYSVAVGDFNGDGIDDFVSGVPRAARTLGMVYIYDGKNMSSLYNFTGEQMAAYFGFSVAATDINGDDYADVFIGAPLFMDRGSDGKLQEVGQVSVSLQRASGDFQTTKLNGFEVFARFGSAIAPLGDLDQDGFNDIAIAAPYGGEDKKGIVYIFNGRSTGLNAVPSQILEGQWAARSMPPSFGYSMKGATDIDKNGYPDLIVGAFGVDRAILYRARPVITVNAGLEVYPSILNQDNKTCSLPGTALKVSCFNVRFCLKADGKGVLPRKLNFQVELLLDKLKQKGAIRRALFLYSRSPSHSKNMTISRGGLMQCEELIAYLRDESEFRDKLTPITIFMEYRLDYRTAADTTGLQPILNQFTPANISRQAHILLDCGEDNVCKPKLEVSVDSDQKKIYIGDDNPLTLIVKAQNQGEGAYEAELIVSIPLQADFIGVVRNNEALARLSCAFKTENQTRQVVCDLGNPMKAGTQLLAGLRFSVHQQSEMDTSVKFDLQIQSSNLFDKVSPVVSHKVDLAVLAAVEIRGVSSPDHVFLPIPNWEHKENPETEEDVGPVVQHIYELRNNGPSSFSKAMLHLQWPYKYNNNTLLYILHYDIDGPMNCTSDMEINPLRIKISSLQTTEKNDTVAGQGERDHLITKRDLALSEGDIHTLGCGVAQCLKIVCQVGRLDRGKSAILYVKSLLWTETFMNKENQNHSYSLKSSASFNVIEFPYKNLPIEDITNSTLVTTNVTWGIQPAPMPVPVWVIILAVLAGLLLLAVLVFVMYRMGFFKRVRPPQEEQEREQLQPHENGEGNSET
T1 sequence (P18084 24-799 limits assumed, chain 2 of 2): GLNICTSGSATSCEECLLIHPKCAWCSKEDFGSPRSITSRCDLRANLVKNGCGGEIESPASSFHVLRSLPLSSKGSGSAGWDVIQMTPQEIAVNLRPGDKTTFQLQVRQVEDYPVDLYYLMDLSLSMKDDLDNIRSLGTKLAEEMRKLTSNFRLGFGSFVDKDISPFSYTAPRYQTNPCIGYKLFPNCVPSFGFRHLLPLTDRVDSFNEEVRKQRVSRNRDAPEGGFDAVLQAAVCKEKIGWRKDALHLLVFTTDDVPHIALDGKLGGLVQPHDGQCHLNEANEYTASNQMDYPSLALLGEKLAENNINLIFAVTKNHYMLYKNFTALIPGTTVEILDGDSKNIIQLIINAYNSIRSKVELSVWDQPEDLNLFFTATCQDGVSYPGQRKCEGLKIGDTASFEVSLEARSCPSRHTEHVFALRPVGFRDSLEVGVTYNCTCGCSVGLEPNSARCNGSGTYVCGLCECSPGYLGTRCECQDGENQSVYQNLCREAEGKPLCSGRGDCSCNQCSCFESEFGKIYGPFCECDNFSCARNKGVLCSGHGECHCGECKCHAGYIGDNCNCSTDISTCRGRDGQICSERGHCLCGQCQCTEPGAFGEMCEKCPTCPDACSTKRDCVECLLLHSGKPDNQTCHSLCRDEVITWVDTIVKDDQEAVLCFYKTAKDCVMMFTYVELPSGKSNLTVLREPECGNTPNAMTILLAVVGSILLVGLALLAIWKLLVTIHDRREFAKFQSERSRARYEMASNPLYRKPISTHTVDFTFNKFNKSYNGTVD
Test: FACS on αvβ5-BaF3 cells, unpurified antibody
assay.metric: pEC50
Recall that pEC50 is obtained by taking minus log10 of the concentration measured in molar.

Example cases with answers are listed next.
binder	pEC50
VH1/VL0 Agly-hIgG1(T299A) (antibody, V domains shown, also called H1/L0) VH: EVQVVESGGGLVKPGGSLRLSCAASGYTFTSYWMHWVRQAPGKGLEWVGAIYPGNSDTSYNQKFKGRFTISADTSKNTLYLQMNSLKTEDTAVYYCTTTTYGYDWFAYWGQGTLVTVSS VL: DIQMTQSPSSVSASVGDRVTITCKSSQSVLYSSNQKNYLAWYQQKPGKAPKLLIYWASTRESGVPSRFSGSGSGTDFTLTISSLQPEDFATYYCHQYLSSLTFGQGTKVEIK	5.43
VH1/VL3 Agly-hIgG1(T299A) (antibody, V domains shown, also called H1/L3) VH: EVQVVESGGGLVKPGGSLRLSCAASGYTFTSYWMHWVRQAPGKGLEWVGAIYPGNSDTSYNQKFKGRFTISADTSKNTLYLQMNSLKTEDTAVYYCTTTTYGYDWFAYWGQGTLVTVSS VL: DIQMTQSPSSLTVSVGDRVTMSCKSSQSVLYSSNQKNYLAWYQQKPGKSPKLLIYWASTRESGVPDRFTGSGSGTDFTLTISSVQPEDFATYYCHQYLSSLTFGAGTKLEIK	5.53
VH1/VL2 Agly-hIgG1(T299A) (antibody, V domains shown, also called H1/L2) VH: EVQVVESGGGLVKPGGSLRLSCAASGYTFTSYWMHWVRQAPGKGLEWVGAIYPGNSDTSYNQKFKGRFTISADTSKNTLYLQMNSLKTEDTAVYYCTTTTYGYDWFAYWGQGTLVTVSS VL: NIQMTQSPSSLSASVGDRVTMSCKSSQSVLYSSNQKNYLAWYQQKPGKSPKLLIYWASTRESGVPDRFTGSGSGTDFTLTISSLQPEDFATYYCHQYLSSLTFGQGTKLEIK	5.27
VH3/VL3 Agly-hIgG1(T299A) (antibody, V domains shown, also called H3/L3) VH: EVQVVESGGGLVKPGGSLRLSCKASGYTFTSYWMHWVKQAPGKGLEWVGAIYPGNSDTSYNQKFKGKFTLSAVTSSNTAYLQMNSLKTEDTAVYYCTTTTYGYDWFAYWGQGTLVTVSS VL: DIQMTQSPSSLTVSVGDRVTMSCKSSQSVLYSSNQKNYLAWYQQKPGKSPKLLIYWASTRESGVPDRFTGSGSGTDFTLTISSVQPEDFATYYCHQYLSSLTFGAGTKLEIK	5.20
VH3/VL1 Agly-hIgG1(T299A) (antibody, V domains shown, also called H3/L1) VH: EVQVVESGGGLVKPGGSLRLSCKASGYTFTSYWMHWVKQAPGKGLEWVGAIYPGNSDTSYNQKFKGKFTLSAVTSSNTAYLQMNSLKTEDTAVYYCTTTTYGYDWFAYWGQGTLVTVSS VL: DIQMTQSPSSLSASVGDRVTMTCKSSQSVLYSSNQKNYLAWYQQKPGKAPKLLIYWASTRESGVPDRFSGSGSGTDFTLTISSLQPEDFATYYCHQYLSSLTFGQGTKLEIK	5.72

Measured pEC50 of VH2/VL2 Agly-hIgG1(T299A) (antibody, V domains shown, also called H2/L2 (Agly-IgG1)) VH: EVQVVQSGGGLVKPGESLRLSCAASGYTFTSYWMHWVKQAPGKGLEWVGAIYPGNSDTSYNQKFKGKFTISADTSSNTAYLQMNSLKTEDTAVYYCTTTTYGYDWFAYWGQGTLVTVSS VL: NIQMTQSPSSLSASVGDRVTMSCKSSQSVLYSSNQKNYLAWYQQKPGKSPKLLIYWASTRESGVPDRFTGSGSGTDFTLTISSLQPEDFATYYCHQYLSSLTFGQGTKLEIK : 6.19

Measured pEC50 of VH2/VL0 Agly-hIgG1(T299A) (antibody, V domains shown, also called H2/L0) VH: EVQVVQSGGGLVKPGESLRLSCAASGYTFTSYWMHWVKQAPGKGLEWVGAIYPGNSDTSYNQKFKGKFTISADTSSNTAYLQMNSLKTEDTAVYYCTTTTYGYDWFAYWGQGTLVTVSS VL: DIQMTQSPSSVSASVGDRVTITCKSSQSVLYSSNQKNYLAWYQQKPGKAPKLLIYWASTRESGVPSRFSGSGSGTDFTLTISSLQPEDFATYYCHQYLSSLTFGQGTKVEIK : 6.45

Measured pEC50 of VH5/VL0 Agly-hIgG1(T299A) (antibody, V domains shown, also called H5/L0) VH: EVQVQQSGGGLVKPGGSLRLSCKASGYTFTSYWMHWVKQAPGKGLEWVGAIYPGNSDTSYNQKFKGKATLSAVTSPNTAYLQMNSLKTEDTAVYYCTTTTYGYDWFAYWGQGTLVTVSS VL: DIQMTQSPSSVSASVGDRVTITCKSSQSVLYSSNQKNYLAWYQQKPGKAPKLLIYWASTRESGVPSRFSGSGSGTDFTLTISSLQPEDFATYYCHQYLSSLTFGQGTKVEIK : 6.61

Measured pEC50 of VH2/VL3 Agly-hIgG1(T299A) (antibody, V domains shown, also called H2/L3) VH: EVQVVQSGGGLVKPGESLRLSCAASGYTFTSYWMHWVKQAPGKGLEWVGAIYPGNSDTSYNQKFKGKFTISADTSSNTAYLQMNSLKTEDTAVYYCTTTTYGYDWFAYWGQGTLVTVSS VL: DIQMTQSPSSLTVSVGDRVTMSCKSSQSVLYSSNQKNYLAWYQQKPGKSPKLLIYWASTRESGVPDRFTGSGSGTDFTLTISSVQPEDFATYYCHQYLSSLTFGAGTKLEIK : 6.00

Measured pEC50 of VH5/VL3 Agly-hIgG1(T299A) (antibody, V domains shown, also called H5/L3) VH: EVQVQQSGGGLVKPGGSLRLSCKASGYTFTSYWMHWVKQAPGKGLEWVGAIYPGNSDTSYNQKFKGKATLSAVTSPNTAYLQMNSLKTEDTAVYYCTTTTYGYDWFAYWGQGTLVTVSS VL: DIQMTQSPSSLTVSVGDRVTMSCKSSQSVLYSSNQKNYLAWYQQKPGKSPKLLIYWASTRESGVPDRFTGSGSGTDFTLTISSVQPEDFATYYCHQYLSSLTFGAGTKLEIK : 6.37
